From: paper PMC12040169

assay-comment: in vitro
test-settings: human, hela cells, % viability
Recorded viability at 28.5 h, 10 µM by entry
Enter your answer as a number in %; do not include the unit.

Use these answered entries as a reference point.
{"compound": "O=C(O)CCCCC/N=C1\\CCc2ccccc2N1", "recorded-metric": "viability at 28.5 h, 10 µM", "experimental-value": 100}
{"compound": "Cc1cc(OCC(=O)N2CCC(C(=O)Nc3ccccc3)CC2)no1", "recorded-metric": "viability at 28.5 h, 10 µM", "experimental-value": 99.5}
{"compound": "Cc1cccc(C)c1N1CCN(CC(O)COc2ccc3c(C)cc(=O)oc3c2)CC1 (stereo not shown)", "recorded-metric": "viability at 28.5 h, 10 µM", "experimental-value": 91.2}
{"compound": "Cc1nc(COc2ccc(Cl)cc2)sc1C(=O)N1CCCCC1C(=O)O (stereo not shown)", "recorded-metric": "viability at 28.5 h, 10 µM", "experimental-value": 87.9}
{"compound": "Clc1ccc(COc2ccnc(N3CCCNCC3)n2)cc1Cl", "recorded-metric": "viability at 28.5 h, 10 µM", "experimental-value": 90}
{"compound": "COc1cc(C(O)CNC(=O)c2cnc(-c3ccc(F)cc3)c(-c3cccc(N)c3)c2)ccc1O (stereo not shown)", "recorded-metric": "viability at 28.5 h, 10 µM", "experimental-value": 98.8}
{"compound": "Cc1ccc(C(=O)NCCNc2cnccn2)cc1S(C)(=O)=O", "recorded-metric": "viability at 28.5 h, 10 µM", "experimental-value": 103}
{"compound": "O=C1CSC2(C(=O)N(Cc3ccccc3)c3ccccc32)N1c1ccccc1 (stereo not shown)", "recorded-metric": "viability at 28.5 h, 10 µM", "experimental-value": 100}

Data request: Read off the recorded viability at 28.5 h, 10 µM for Cc1cccc(=O)n1CCCn1cc(C2CCCNC2)nn1 (stereo not shown)
Data returned: 91

Data request: Read off the recorded viability at 28.5 h, 10 µM for `Nc1nn2c(c1Cc1c(Cl)cccc1Cl)OCC2`
Data returned: 91.7
